The reported measurements were obtained from the RNAGym collection of RNA variant scans (doi:10.1073/pnas.2313332121).

B1: TPR 5TU (parent)
chain: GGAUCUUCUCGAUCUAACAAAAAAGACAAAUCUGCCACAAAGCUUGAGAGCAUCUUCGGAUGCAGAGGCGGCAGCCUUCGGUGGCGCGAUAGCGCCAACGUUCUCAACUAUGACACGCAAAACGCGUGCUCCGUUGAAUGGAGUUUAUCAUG

# Variants of: B1
# protocol_summary: polymerase ribozyme fitness, log enrichment relative to wild type (log ratio); higher = more active; in vitro selection for triplet polymerase activity
Variants at the floor of the assay were thinned out.
In this section, each of the variants is paired with its reported polymerase ribozyme fitness (log ratio).

Here's what some known entries look like.
variant="U13A A24U C87A C123A" readout_kind="polymerase ribozyme fitness (log ratio)" reported_value="≤ -4.2"
variant="U144A U145A" readout_kind="polymerase ribozyme fitness (log ratio)" reported_value=-0.541
variant="G50A C57A U127A G143U" readout_kind="polymerase ribozyme fitness (log ratio)" reported_value=-4.04
variant="A41C G143C" readout_kind="polymerase ribozyme fitness (log ratio)" reported_value=-2.56
variant="A49G G50U C87G U144G" readout_kind="polymerase ribozyme fitness (log ratio)" reported_value="≤ -4.2"

The variant identified as C5U A142U registered its polymerase ribozyme fitness (log ratio) at -0.885

The recorded polymerase ribozyme fitness (log ratio) for entry A91G C108U C116G G152A equals -3.48
